# Tested on: SF-268 CNS
# assay.remarks: NCI-60 one-dose screen, 48 h
# condition.summary: 10 µM unless noted
The panel holds about 83,000 compounds, 20% with a hit somewhere; the sample as a whole holds those more often. Active and inactive are the calls of the source. How the source made its calls: active means growth percent below 10; inactive means the rest.
Would you mind answering with one of these outcomes? True = active, False = inactive

## Task For C=C1CC[C@@H]2C(C)(C)[C@H](O)CC[C@@]2(C)[C@@H]1COc1ccc2ccc(=O)oc2c1 , which call appears in the assay record?
## Result False

## Task For CN1c2ccccc2S(=O)(=O)n2c(SCC(=O)Nc3nc4ccc(F)cc4s3)nnc21 , which call appears in the assay record?
## Result False

## Task For O=C(Nc1cccnc1Nc1ccc(Cl)cc1)c1cn(Cc2cccc(Oc3ccccc3)c2)nn1 , which call appears in the assay record?
## Result False

## Task For Cn1cc(-c2nc3c(F)cc4[nH]ncc4c3c3c2CCCC3)c(C(F)(F)F)n1 , which call appears in the assay record?
## Result False

## Task For Clc1cccc(C2Cc3cnccc3-c3[nH]c4ccncc4c32)c1 (centres undefined) , which call appears in the assay record?
## Result False

## Task For O=C1/C(=C/c2cccc(Br)c2)COc2ccc(O)cc21 , which call appears in the assay record?
## Result False

## Task For COc1ccc(/C=C(\C(=O)NCc2cccnc2)S(=O)(=O)c2ccccc2)cc1OC , which call appears in the assay record?
## Result False

## Task For Cc1ccc2nc(-c3ccc(C(=O)N/N=C/c4ccc([N+](=O)[O-])cc4)cc3)[nH]c2c1 , which call appears in the assay record?
## Result False

## Task For C=C1C(=O)O[C@H]2[C@H]1CC/C(COC(=O)C(=O)c1c[nH]c3ccc(Cl)cc13)=C\CC[C@@]1(C)O[C@@H]21 , which call appears in the assay record?
## Result True

## Task For c1ccc(-c2c(-c3ccccc3)[n+](Cc3ccc4ccccc4c3)cn2Cc2ccc3ccccc3c2)cc1 , which call appears in the assay record?
## Result True

## Task For COc1ccc2cc(C(=O)N3CCC([C@@H](C)C(=O)NCc4ccc5c(c4)OCO5)CC3)[nH]c2c1 , which call appears in the assay record?
## Result False

## Task For CCOC(=O)C1=C(CCl)N(C)C(=O)NC1c1ccc2c(c1)OCO2 (centres undefined) , which call appears in the assay record?
## Result False

## Task For COc1cc(-c2ccc(-c3ccc(C(=N)N)cc3)s2)cc(OC)c1OC , which call appears in the assay record?
## Result False

## Task For COc1ccc(C(=O)Nc2ncc(Cc3ccc(Cl)cc3)s2)cc1 , which call appears in the assay record?
## Result False

## Task For C[C@@H]1CN(c2cnc(C(=O)Nc3cc(F)cc4cccnc34)cn2)C[C@H](C)N1 , which call appears in the assay record?
## Result False

## Task For COC(=O)/C=C1/SC(=Nc2ccc(F)cc2)N(CCc2c[nH]c3ccc(O)cc23)C1=O , which call appears in the assay record?
## Result False

## Task For CC(C)c1ccc2c(c1)CC[C@H]1[C@](C)(C(=O)OCC#CCN3CCCC3)CCC[C@]21C , which call appears in the assay record?
## Result False

## Task For COc1ccc(C2CC(c3ccccc3)=NN2C(=O)c2cc(OC)c(OC)c(OC)c2)cc1O (centres undefined) , which call appears in the assay record?
## Result False

## Task For CCOc1ncc([N+](=O)[O-])c(OCC)n1 , which call appears in the assay record?
## Result False
